# System Tested: OGG1 (Homo sapiens, UniProt O15527)
# Sequence (O15527 whole entry): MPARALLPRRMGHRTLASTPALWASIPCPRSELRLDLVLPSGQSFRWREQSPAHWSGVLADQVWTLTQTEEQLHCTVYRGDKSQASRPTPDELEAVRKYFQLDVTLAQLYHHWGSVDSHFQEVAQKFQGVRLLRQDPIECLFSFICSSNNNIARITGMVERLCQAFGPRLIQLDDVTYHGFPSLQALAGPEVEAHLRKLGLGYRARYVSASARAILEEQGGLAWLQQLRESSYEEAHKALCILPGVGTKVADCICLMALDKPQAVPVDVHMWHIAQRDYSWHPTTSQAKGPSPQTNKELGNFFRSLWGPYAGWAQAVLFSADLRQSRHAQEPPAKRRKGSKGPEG
Test Readout: pIC50
Friendly reminder that pIC50 comes from taking -log10 of the concentration in mol/L.

(Q) Lab note: need pIC50 with OGG1 (Homo sapiens, UniProt O15527) for entry NNC(=O)c1cc2ccccc2cc1O [3-hydroxy-2-naphthohudrazide] , please look it up.
(A) 7.12

Cited source: patent US20170038365A1
